METHOD_NOTES: blockers of bacterial quorum-sensing reporter fluorescence – flow cytometry, SAR analogs, SAR follow-up (AID 1014);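 note: Staphylococcus aureus RN6390 with RNAIII-GFP reporter stimulated by AIP; bacteria incubated with compound for 3 hours at 37 °C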
ASSAY_CONDITIONS: at 20 µM, stronger effect = higher value; measured here: percent reporter-positive cells
Listed here are molecules together with their documented inhibition of percent positive cells.

MOLECULE | inhibition of percent positive cells / %
O=C1CS/C(=N\C(=O)N2c3ccccc3Sc3ccccc32)N1 | 52.4
CN(C)c1ccc(Nc2c(C(=O)O)cc([N+](=O)[O-])cc2[N+](=O)[O-])cc1 | 5.2
CC(=O)c1c(C)oc2ccc(O)cc12 | -1.1
Cc1c(Nc2c(C(=O)O)cc([N+](=O)[O-])cc2[N+](=O)[O-])c(=O)n(-c2ccccc2)n1C | -0.4
O=C(O)c1cc([N+](=O)[O-])cc([N+](=O)[O-])c1Nc1ccc(Cl)cc1 | 0.2
O=C(O)c1cccnc1Nc1cccc(SC(F)(F)F)c1 | 8.8
COc1ccc(C(=O)N2CCC(C(=O)Nc3ccc4c(c3)OCO4)CC2)cc1 | 0
CCOc1ccc(Nc2nc3c(S(=O)(=O)c4ccc(C(C)C)cc4)nnn3c3ccccc23)cc1 | -0.1
CC(C)c1ccc(NC(=O)C(c2ccc3c(c2)OCO3)N2CCN(C(=O)c3ccco3)CC2)cc1 (centres undefined) | -1.4
CC1CCCN(C(C(=O)Nc2ccc(C(C)C)cc2)c2ccc3c(c2)OCO3)C1 (centres undefined) | 0.5
CCOC(=O)c1c(-c2cc(Cl)c(OC)c(Cl)c2)oc2ccc(O)cc12 | -0.4
CC1CC(C)CN(C(C(=O)Nc2ccc(C(C)C)cc2)c2ccc3c(c2)OCO3)C1 (centres undefined) | -1.5
O=C(O)c1ccccc1Nc1cccc2c1C(=O)c1ccccc1C2=O | 10
CCOc1ccc(Nc2nc3c(S(=O)(=O)c4ccc(Br)cc4)nnn3c3ccccc23)cc1 | -0.3

----------
METHOD_NOTES: blockers of bacterial quorum-sensing reporter fluorescence – flow cytometry, SAR analogs, SAR follow-up (AID 1014)
ASSAY_CONDITIONS: at 20 µM, stronger effect = higher value
Cut-off -20% on inhibition of mean fluorescence, inclusive. At or above means rule met; below means rule not met.

COMPOUND | GROUP
O=C(Nc1ccc2c(c1)OCO2)C(c1ccc(Cl)cc1)N1CCC2(CC1)OCCO2 (configuration not stated) | rule met
COc1c(F)c(F)c(C(=O)O)c(Nc2ccccc2)c1F | rule not met
O=C(NCC(c1cccnc1)N1CCN(c2ccc(F)cc2)CC1)C1CCCCC1 (configuration not stated) | rule not met
O=C(O)c1ccccc1Nc1cccc2c1C(=O)c1ccccc1C2=O | rule met
COc1cc(Nc2cc(C)nc3nc(C)nn23)c(C(=O)O)cc1OC | rule met
Cc1nnc(N2CCC(C(=O)Nc3ccc4c(c3)OCCO4)CC2)c2nn(-c3ccccc3)c(C)c12 | rule met
Cc1ccc(C(C)C)c(OCC(=O)Nc2sc3c(c2C#N)CCCCC3)c1 | rule met

----------
Examples of molecules with documented inhibition of percent positive cells follow.
METHOD_NOTES: blockers of bacterial quorum-sensing reporter fluorescence – flow cytometry, SAR analogs, SAR follow-up (AID 1014);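 note: Staphylococcus aureus RN6390 with RNAIII-GFP reporter stimulated by AIP; bacteria incubated with compound for 3 hours at 37 °C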
ASSAY_CONDITIONS: at 20 µM, stronger effect = higher value; measured here: percent reporter-positive cells

MOLECULE | inhibition of percent positive cells, %
COC(=O)c1c(C)oc2cc(Br)c(O)cc12 | -1
N#Cc1c(NC(=O)COC(=O)c2c3c(nc4ccccc24)CCCC3)sc2c1CCCC2 | -0.1
Cc1cc(C)cc(Nc2c(F)c(F)c(F)c(F)c2C(=O)O)c1 | -0.2
Cc1[nH]nc(Nc2ccccc2C(=O)O)c1[N+](=O)[O-] | 0.2
O=C(NCC(c1cccnc1)N1CCOCC1)c1cccc(Cl)c1 (stereo not drawn) | 0.6
COc1ccc(Nc2nc3c(S(=O)(=O)c4ccccc4)nnn3c3ccccc23)cc1 | -0.4
CC(=O)c1cc2c(cc1NC(=O)CN1CCN(C(=O)c3ccco3)CC1)OCO2 | -0.1
Cc1nnc(N2CCCC(C(=O)Nc3ccc4c(c3)OCO4)C2)c2nn(-c3ccccc3)c(C)c12 (stereo not drawn) | 0
O=C(O)c1ccccc1Nc1c([N+](=O)[O-])c(=O)oc2ccccc12 | -1.7
O=C(NCC(c1cccnc1)N1CCc2ccccc21)c1cccc(Br)c1 (stereo not drawn) | 0.1
CCOC(=O)c1cnc2c(OC)cccc2c1Nc1ccccc1C(=O)O | -1.1
COc1ccc(C(=O)NCC(c2cccnc2)N2CCN(c3ccccc3F)CC2)cc1OC (stereo not drawn) | -1.8
COc1ccc(N2CCN(C(CNC(=O)c3ccc(F)cc3)c3cccnc3)CC2)cc1 (stereo not drawn) | -1.5
COc1ccc(S(=O)(=O)c2n[nH]n3c2nc(=O)c2ccccc23)cc1 | -1.8
CCc1ccc(S(=O)(=O)c2nnn3c2nc(Nc2ccc(Oc4ccccc4)cc2)c2cc(Cl)ccc23)cc1 | -0.1
CN=C1NC(=O)CC(C(=O)Nc2ccc3ccccc3c2)S1 (stereo not drawn) | -0.3
CC1CCN(C(=O)Cn2cc(SCC(=O)Nc3ccc4c(c3)OCO4)c3ccccc32)CC1 | -0.2
O=C(O)c1ccccc1Nc1ccnc(N2CCOCC2)n1 | 0
Cc1cc(Nc2ccccc2C(=O)O)n2ncnc2n1 | -0.3
CC1CN(CCC(=O)Nc2ccc3c(c2)OCO3)CC(C)O1 (stereo not drawn) | -1.3
COc1ccc(CC(=O)Nc2oc(-c3ccccc3)c(-c3ccccc3)c2C#N)cc1OC | -0.5
Cc1oc2ccc(O)cc2c1C(=O)OC(C)C | 0.1
Cc1ccc(NC(=O)CN2CCN(Cc3ccc4c(c3)OCO4)CC2)cc1 | -0.8
COc1ccc(C2C(C(=O)Nc3ccc4c(c3)OCO4)c3ccccc3C(=O)N2C2CCCCC2)cc1 (stereo not drawn) | 0.6
O=C(Nc1ccc2c(c1)OCO2)C(c1ccc(Cl)cc1)N1CCC2(CC1)OCCO2 (stereo not drawn) | -0.8
CC(C)c1ccc(NC(=O)C(c2ccc3c(c2)OCO3)N2CCc3ccccc32)cc1 (stereo not drawn) | -1.6
CCCCc1oc2ccccc2c1C(=O)c1ccc(O)cc1 | 43.2
COc1ccccc1N1CCN(C(CNC(=O)c2ccc(F)cc2)c2cccnc2)CC1 (stereo not drawn) | -1.7

----------
Measured inhibition of percent positive cells by item
METHOD_NOTES: blockers of bacterial quorum-sensing reporter fluorescence – flow cytometry, SAR analogs, SAR follow-up (AID 1014);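 note: Staphylococcus aureus RN6390 with RNAIII-GFP reporter stimulated by AIP; bacteria incubated with compound for 3 hours at 37 °C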
ASSAY_CONDITIONS: at 20 µM, stronger effect = higher value; measured here: percent reporter-positive cells
OBSERVED_PROPERTY: inhibition of percent positive cells (%)

COMPOUND | NUMERIC_READOUT
CSCCC(NC(=O)c1ccccc1)C(=O)OCC(=O)Nc1sc2c(c1C#N)CCCC2 (stereo unspecified) | -0.2
CCOC(=O)c1c(-c2cc(Br)c(OC)c(Br)c2)oc2ccc(O)cc12 | -0.6
CC1CCN(C(C(=O)Nc2ccc(C(C)C)cc2)c2ccc3c(c2)OCO3)CC1 (stereo unspecified) | -0.9
O=C(CN1C(=O)c2ccccc2C1=O)N=C1NC(=O)CS1 | -1.2
O=C(NCC(c1cccnc1)N1CCN(c2ccc(F)cc2)CC1)C1CCCCC1 (stereo unspecified) | 0.5
CC1CCN(C(C(=O)NC2CCCC2)c2cc3c(cc2[N+](=O)[O-])OCO3)CC1 (stereo unspecified) | -1

----------
METHOD_NOTES: blockers of bacterial quorum-sensing reporter fluorescence – flow cytometry, SAR analogs, SAR follow-up (AID 1014);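 note: Staphylococcus aureus RN6390 with RNAIII-GFP reporter stimulated by AIP; bacteria incubated with compound for 3 hours at 37 °C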
ASSAY_CONDITIONS: at 20 µM
Calls of active or inactive are those of the source. No stated cut-off is given here; in the data, active means inhibition of mean fluorescence above about 33%; inactive means the rest.
Outcomes: TRUE for active, FALSE for inactive

MOLECULE | GROUP
CCOc1ccc(Nc2nc3c(S(=O)(=O)c4ccc(C(C)C)cc4)nnn3c3ccccc23)cc1 | FALSE
CC1CCCN(C(C(=O)Nc2ccc3c(c2)OCCO3)c2ccccc2)C1 (stereo not drawn) | TRUE
O=C(NC1CCCC1)C(c1cc2c(cc1[N+](=O)[O-])OCO2)N1CCN(c2ccccc2)CC1 (stereo not drawn) | FALSE
Cc1cc(C)cc(Nc2c(F)c(F)c(F)c(F)c2C(=O)O)c1 | FALSE
NC1=NC(=O)CC(C(=O)Nc2cccc3ccccc23)S1 (stereo not drawn) | FALSE
COc1ccc(C(=O)NCC(c2cccnc2)N2CCN(c3ccc(F)cc3)CC2)cc1 (stereo not drawn) | FALSE
CCc1ccc(S(=O)(=O)c2nnn3c2nc(Nc2ccc(Oc4ccccc4)cc2)c2cc(Cl)ccc23)cc1 | FALSE
COc1cccc(Nc2c(F)c(OC)c(F)c(F)c2C(=O)O)c1 | FALSE
O=C(CN1C(=O)c2ccccc2C1=O)N=C1NC(=O)CS1 | FALSE
CCOC(=O)c1cnc2ccc(OC(F)(F)F)cc2c1Nc1ccccc1C(=O)O | FALSE
CC(C)c1ccc(NC(=O)C(c2cc3c(cc2[N+](=O)[O-])OCO3)N2CCC(Cc3ccccc3)CC2)cc1 (stereo not drawn) | FALSE
CC(=O)c1cc2c(cc1NC(=O)CN1CCN(C(c3ccccc3)c3ccccc3)CC1)OCO2 | TRUE
COc1ccc(C(=O)NCC(c2cccnc2)N2CCN(c3ccc(F)cc3)CC2)cc1OC (stereo not drawn) | FALSE
CCOC(=O)C1CCN(C(C(=O)Nc2ccc3c(c2)OCO3)c2ccccc2)CC1 (stereo not drawn) | FALSE
CCc1c(C(=O)c2ccccc2)oc2c(C)c3oc(=O)cc(C)c3cc12 | FALSE
CC(C)c1ccc(NC(=O)C(c2cc3c(cc2[N+](=O)[O-])OCO3)N2CCCCC2)cc1 (stereo not drawn) | FALSE
Cc1ccc(S(=O)(=O)c2nnn3c2nc(Nc2ccc(Oc4ccccc4)cc2)c2ccccc23)cc1 | FALSE
O=C(NCCN1CCN(C(=O)c2cc(F)c(F)cc2Cl)CC1)c1cc(F)c(F)cc1Cl | FALSE

The origin of these recorded values is PubChem BioAssay AID1014.
